Target: HLA-A*03:01
Test: IEDB peptide-MHC binding, purified MHC/competitive/fluorescence; bounds were set here for any values at or beyond the usual limits of such assays
Details: source organism: Zaire ebolavirus
Exercise: for every item that follows, state its recorded pIC50.
// pIC50 here means minus log10 of the molar concentration (mol/L)

Request the reported pIC50 associated with `GHGFRFEVK`
5.19

Request the reported pIC50 associated with `HHAYQGDYK`
4.34

###

Target: HLA-A*31:01
Test: IEDB peptide-MHC binding, purified MHC/competitive/fluorescence; bounds were set here for any values at or beyond the usual limits of such assays
Settings: source organism: Homo sapiens
measurement-name: IC50

Request the reported IC50 associated with `MVRVLTVIKEY`
≥ 20 µM
